# System: HOP-62 NSCLC
# experimentalProtocol: NCI tumour cell line growth inhibition, 48 h
Reported TGI values are given for each entry in this list.
propertyName: TGI (µM)

> print(dat)
                                    molecule  sign  resultnumber
 1     Cc1ccc(/C=C/C(=N/N=C(N)N)c2ccccc2)cc1     =            16
 2  Cc1c(-c2ccccc2)c(C#N)c2nnn(C3CCCCC3)c(=O)n12     =          46.6
 3  COC(=O)C1(C(=O)OC)N=C(C)OC1c1ccccn1 (stereo not given)     >           100
 4               Clc1nc(Cl)c2c3c(sc2n1)CCCC3     >           100
 5  COC(=O)NN1C(C)=C(C(=O)OC)C2(C#N)C(C(=O)OC)=C(C)N(NC(=O)OC)C12N (stereo not given)     >           100
 6  O=C1C(=O)c2ccccc2C(O)=C1CCCc1ccc(C2CCCC2)cc1     =          23.6
 7  O=C(Nc1c(C(=O)NC2CCCCC2)[nH]c(=O)[nH]c1=O)c1ccc(Cl)cc1     >           100
 8  COc1ccc(CNC(C)C(=O)O)cc1 (stereo not given)     >           100
 9  COC1=CC(=O)c2c(cc(COP(=O)(OCC3OC(n4cc(F)c(=O)[nH]c4=O)CC3O)N(C)CCCCCl)n2C)C1=O (stereo not given)     =          26.8
10  C[N+](C)(CCCCCC[N+](C)(C)CCCN1C(=O)c2cc3ccccc3cc2C1=O)CCCN1C(=O)c2cc3ccccc3cc2C1=O     >          37.5

---

Reported TGI values are given for each entry in this list.
# Tested on: SR leukemia
# experimentalProtocol: NCI tumour cell line growth inhibition, 48 h

compound	experimentalTarget	sign	TGI (µM)
COc1cccc2c3ccccc3c3nc[nH]c3c12	SR leukemia	=	46.6
O=C1CCCCC=C1C[N+](=O)[O-]	SR leukemia	=	12.3
O=S1(=O)NC2CCC3NS(=O)(=O)NC4CCC(N1)N4S(=O)(=O)N23 (centres undefined)	SR leukemia	>	100
C/C=C(/CCC1NCCC2c3ccccc3NC12)[Si](C)(C)C (centres undefined)	SR leukemia	=	12.5
CC(C)COC(=O)OC(=O)c1ccc(N(C)Cc2cnc3nc(N)nc(N)c3n2)cc1	SR leukemia	>	100
Cc1ccc(NC(=O)CC/C(CC(=O)C(C)(C)C)=N/NC(=O)C[N+](C)(C)C)cc1C	SR leukemia	>	100
N#CC1(Nc2ccc(-c3ccc(NC4(C#N)CCCC4)cc3)cc2)CCCC1	SR leukemia	>	100
CC1(C)OCC(C2OC(OC(=O)c3ccc([N+](=O)[O-])cc3)C3OC(C)(C)OC23)O1 (centres undefined)	SR leukemia	>	100
COc1cc(/C=C/c2nc(N)nnc2C)cc(OC)c1OC	SR leukemia	>	100
N#CC(Nc1cccc(C(F)(F)F)c1)c1ccccc1C(F)(F)F (centres undefined)	SR leukemia	=	25.9
NC1CCC(Nc2nc(NCc3cc(Cl)ccc3O)c3ncn(C4CCCC4)c3n2)CC1 (centres undefined)	SR leukemia	=	0.237
CCCCCCC/C=C/[C@H]1O[C@]2(O)C(=O)C=C3C[C@@H](O[C@@H]4O[C@H](CO)[C@@H](O)C(O)[C@@H]4O)C[C@@H]3[C@H]2C=C1C (some centres undefined)	SR leukemia	=	2.85
COC(=O)C1=Cc2cc(OC)c(OC)cc2[C@H](c2ccc(OC)c(OC)c2)C1C(=O)OC (some centres undefined)	SR leukemia	>	100
COC(=O)C(Cc1ccccc1)NP(=O)(O)OCC1OC(n2cc(I)c(=O)[nH]c2=O)CC1O (centres undefined)	SR leukemia	>	100
CCCCCCCCCCC/C=C\C[C@H](O)C/C=C1/C(=O)C=C[C@@H]1C/C=C\CCCC(=O)OC	SR leukemia	=	3.97
COc1ccc(/C=C/C(=N/NC(=O)N/N=C(/C=C/c2ccc(OC)cc2)C(C)(C)CN2CCCCC2)C(C)(C)CN2CCCCC2)cc1	SR leukemia	=	0.679
Nc1nc2c(nnn2C2OC(CO)C(O)C2O)c(=O)[nH]1 (centres undefined)	SR leukemia	>	100
Cc1ccc(C2SCC(=O)N2c2ccc(-c3ccc(-n4c(-c5ccccc5)nc5ccccc5c4=O)cc3)cc2)cc1 (centres undefined)	SR leukemia	>	100
NNC1=N/C(=C\c2ccco2)C(=O)N1	SR leukemia	>	100
COC(=O)/C=C(/C(=O)OC)c1cc2ccc3c([nH]c4ccccc43)c(C)c-2c1	SR leukemia	=	8.59
CC(C)(CCN=C(N)Nc1ccccn1)c1ccc(C(F)(F)F)cc1	SR leukemia	=	32.9
CCC(=O)NC(Nc1cccc(F)c1)(C(F)(F)F)C(F)(F)F	SR leukemia	>	100
CC1=C(C(=O)Nc2ccc3[nH]ncc3c2)C(c2ccc(Cl)c(Cl)c2)CC(=O)N1 (centres undefined)	SR leukemia	>	25
Cc1cc2oc(-c3ccccc3)c(C)c(=O)c2c2c1OC(C)(C)S2	SR leukemia	>	100
Cc1cc(=O)[nH]c2cc(NC(=O)C(CCCN=C(N)N)NC(=O)OCc3ccccc3)ccc12 (centres undefined)	SR leukemia	>	100
CCC(C)[C@H](NC(=O)NC(=O)NC(=O)CI)C(=O)OC (some centres undefined)	SR leukemia	=	4.15
O=C(O)CCNC(=O)c1cc(N(CCBr)CCBr)c([N+](=O)[O-])cc1[N+](=O)[O-]	SR leukemia	>	100
CCC12CCCNC1c1c(n(C)c3ccccc13)C(C(=O)OC)C2 (centres undefined)	SR leukemia	>	275
COc1cc2nc(-c3ccc(Cl)cc3)cc(OCCCN3CCCC3)c2cc1OC	SR leukemia	=	1.38

Reference source for all entries: PubChem BioAssay (NCI)
